Entry source: patent US20260167721A1

Would you kindly list kon for each of these binders?
target: T1, recombinant human CD3 epsilon/delta heterodimer (human, UniProt P07766 23-126; P04234 22-105); experiment: BLI (Octet), mAb 5 ug/mL on FAB2G sensor, hCD3 E/D 200-50 nM
T1 construct: Recombinant heterodimer used as analyte in Octet; also called hCD3 E/D; human CD3E/D
T1 sequence (P07766 23-126, stated change not applied, chain 1 of 2): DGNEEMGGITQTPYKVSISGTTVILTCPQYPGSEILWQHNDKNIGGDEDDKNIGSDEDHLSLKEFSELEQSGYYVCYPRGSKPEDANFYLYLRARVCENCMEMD
T1 sequence (P04234 22-105, stated change not applied, chain 2 of 2): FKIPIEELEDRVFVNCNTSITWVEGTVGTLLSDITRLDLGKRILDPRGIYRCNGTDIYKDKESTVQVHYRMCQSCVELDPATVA
Write down the numeric answer in M⁻¹ s⁻¹ and omit the unit.

Asked: Give the measured kon of ABL-CD3-73 (antibody, V domains shown, mAb purified from hybridoma; chimeric AlivaMab IgG (human VH, CH1 and upper hinge; mouse middle hinge, CH2, CH3; human light chain)) VH: EVQLVESGGGLVKPGGSLRLSCAASGFTITSYSMNWVRQAPGKGLEWVSTFSRSSTYIYYADSVKGRFTISRDNAKNSLYLQMNSLRAEDTAVYYCAREKWDLLYFDYWGQGTLVTVSS VL: NFMLTQPHSVSESPGKTVTISCTRSSGSIASNYVQWYQQRPGSSPTTVIYEDNRRPSGVPDRFSGSIDSSSNSASLTISGLKTEDEADYYCQSYDNSNRVFGGGTTLTVL .
Given back: 79700

Asked: Next entry: ABL-CD3-75 (antibody, V domains shown, mAb purified from hybridoma; chimeric AlivaMab IgG (human VH, CH1 and upper hinge; mouse middle hinge, CH2, CH3; human light chain)) VH: EVQLVESGGGLVKPGGSLRLSCAASGFTFSTYSLNWVRQAPGKGLEWVSSISVSSRYIYFADSVKGRFTISRDNAKNSLYLQMNSLRAEDTAVYYCARDRRELLLDYWGQGTLVTVSS VL: SYELTQPPSVSVSPGQTARITCSGDALPKKYAYWYQQKSGQAPVLVIYEDSKRPSGIPERFSGSSSGTMATLTISGAQVEDEADYYCYSTDSSGNHNWVFGGGTKLTVL
Given back: 245000

Asked: Next entry: ABL-CD3-87 (antibody, V domains shown, mAb purified from hybridoma; chimeric AlivaMab IgG (human VH, CH1 and upper hinge; mouse middle hinge, CH2, CH3; human light chain)) VH: EVQLVESGGGLVKFGGSLRLSCAASGFTFSRYSMNWVRQAPGKGLEWVSSISSSSSYKYYADSVKGRFTISRDNAKNSLYLQMNSLRAEDTAVYYCAREGGNSHGMDVWGQGTTVTVSS VL: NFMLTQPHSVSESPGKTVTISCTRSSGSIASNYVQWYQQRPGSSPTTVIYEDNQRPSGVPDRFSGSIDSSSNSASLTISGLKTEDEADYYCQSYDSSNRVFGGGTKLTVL
Given back: 240000
